Collected set of pIC50 measured with IRAK4 (Homo sapiens (Human)) across studies.
Scale note: pIC50 = -log10(concentration in M).

Please review the entries below; each comes with its answer.
>  <compound>
Cn1cc(NC(=O)c2ccc3ccc(N4CCNCC4)nn23)c(C(F)(F)F)n1

>  <measure>
pIC50

>  <numeric.result>
7.20

$$$$
>  <compound>
Cn1nccc1-c1ccc2ncnc(N[C@H]3CC[C@H](N4CCOCC4)CC3)c2c1

>  <measure>
pIC50

>  <numeric.result>
6.49

$$$$

Okay, now this compound:
Q) Report value only: pIC50, IRAK4 (Homo sapiens (Human)), CC1CCCC1Nc1cc(Nc2ccc3ncsc3c2)ncc1C(=O)NC[C@@H](F)C(C)(C)O (stereo partly shown)
A) 8.72
